- experiment-notes: CREB reporter modulators without forskolin, primary screen, cell-based, PC12, CRE-LacZ reporter, unstimulated (AID 1145)
- setup-conditions: no forskolin, luminescence, 4.5 h, higher = more signal, called active from +8 up or from −8 down
Each entry below carries its recorded z-score.
Lab note: record just the number, no unit beside it.

molecule: CC(C)C(=C=CC[C@@H](O)c1ccc(OCCO)cc1)C[C@@H](O)COCc1ccccc1
z-score: 6.97

molecule: NC(=O)[C@@H]1[C@H]2C(=O)O[C@H](c3ccccc3)[C@H](c3ccccc3)N2[C@H](c2ccc(O)cc2)[C@@]12C(=O)Nc1ccccc12
z-score: -0.491

Now for a further molecule.
Using known records, supply z-score for COc1ccc(C#Cc2ccc3c(c2)[C@]2(C(=O)N3)[C@H](c3ccccc3OCCO)N3[C@H](c4ccccc4)[C@H](c4ccccc4)OC(=O)[C@H]3[C@@H]2C(=O)Nc2nc3ccccc3s2)cc1
-1.28
